Assignment: determine reported pIC50 for the given compounds.
Target: Methylated-DNA--protein-cysteine methyltransferase (Homo sapiens, UniProt P16455)
Sequence (P16455 whole entry): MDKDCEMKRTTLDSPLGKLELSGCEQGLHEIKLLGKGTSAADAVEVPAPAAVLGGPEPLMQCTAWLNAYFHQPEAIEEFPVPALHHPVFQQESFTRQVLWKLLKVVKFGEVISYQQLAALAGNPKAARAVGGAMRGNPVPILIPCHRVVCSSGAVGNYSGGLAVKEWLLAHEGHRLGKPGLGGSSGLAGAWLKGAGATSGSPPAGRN
pIC50: −log10 of the molar value.

Send back Methylated-DNA--protein-cysteine methyltransferase (Homo sapiens, UniProt P16455) pIC50 of `Nc1ccc(C(=O)c2ccc(Nc3nc(N)nc(OCc4ccccc4)c3[N+](=O)[O-])cc2)cc1` only.
< 3.22

Send back Methylated-DNA--protein-cysteine methyltransferase (Homo sapiens, UniProt P16455) pIC50 of `Nc1ccc(Oc2ccc(Nc3nc(N)nc(OCc4ccccc4)c3[N+](=O)[O-])cc2)cc1` only.
< 3.22

Origin of the recorded values: ChEMBL document CHEMBL1681736
